meta.source: ChEMBL document CHEMBL1131132

experimental_system: Acetylcholinesterase (Rattus norvegicus, UniProt P37136)
Sequence (P37136 whole entry): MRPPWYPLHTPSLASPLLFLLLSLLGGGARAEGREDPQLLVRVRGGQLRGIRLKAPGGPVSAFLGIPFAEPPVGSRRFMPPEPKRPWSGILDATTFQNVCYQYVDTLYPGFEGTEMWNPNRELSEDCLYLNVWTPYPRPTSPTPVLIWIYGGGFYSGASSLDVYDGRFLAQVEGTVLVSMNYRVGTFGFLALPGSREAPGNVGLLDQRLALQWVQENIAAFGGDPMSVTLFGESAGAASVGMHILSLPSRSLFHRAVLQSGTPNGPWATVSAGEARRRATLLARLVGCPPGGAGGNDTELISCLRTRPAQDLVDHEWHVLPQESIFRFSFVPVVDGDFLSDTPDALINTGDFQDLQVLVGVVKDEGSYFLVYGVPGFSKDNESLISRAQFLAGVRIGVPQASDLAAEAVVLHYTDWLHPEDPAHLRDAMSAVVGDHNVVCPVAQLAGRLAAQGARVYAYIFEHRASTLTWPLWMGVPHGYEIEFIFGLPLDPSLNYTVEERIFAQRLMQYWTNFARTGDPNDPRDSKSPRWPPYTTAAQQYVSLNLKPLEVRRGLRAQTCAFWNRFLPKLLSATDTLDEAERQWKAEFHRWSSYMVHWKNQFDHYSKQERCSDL
recorded_endpoint: IC50 (nM)
Numeric only. Scale: nM

- CNC(=O)Oc1cccc(CN(C)CCCOc2ccc3c(=O)cc(-c4ccccc4)oc3c2)c1: 0.6
- CCCCNC(=O)Oc1cccc(CN(C)CCCOc2ccc3c(=O)c4cccnc4oc3c2)c1: 70
- CNC(=O)Oc1cccc(CN(C)CCCOc2ccc3ccc(=O)oc3c2)c1: 1.5

Now take the following molecule into account.
Prompt: For the molecule `CCCCCCCNC(=O)Oc1cccc(CN(C)CCCOc2ccc3ccc(=O)oc3c2)c1` , what IC50 is on record?
Response: 2

====

Documented Ratio across a set of compounds
experimental_system: Cholinesterases; ACHE & BCHE (Homo sapiens) (UniProt P06276+P22303)
Sequence (P06276 whole entry, looked up): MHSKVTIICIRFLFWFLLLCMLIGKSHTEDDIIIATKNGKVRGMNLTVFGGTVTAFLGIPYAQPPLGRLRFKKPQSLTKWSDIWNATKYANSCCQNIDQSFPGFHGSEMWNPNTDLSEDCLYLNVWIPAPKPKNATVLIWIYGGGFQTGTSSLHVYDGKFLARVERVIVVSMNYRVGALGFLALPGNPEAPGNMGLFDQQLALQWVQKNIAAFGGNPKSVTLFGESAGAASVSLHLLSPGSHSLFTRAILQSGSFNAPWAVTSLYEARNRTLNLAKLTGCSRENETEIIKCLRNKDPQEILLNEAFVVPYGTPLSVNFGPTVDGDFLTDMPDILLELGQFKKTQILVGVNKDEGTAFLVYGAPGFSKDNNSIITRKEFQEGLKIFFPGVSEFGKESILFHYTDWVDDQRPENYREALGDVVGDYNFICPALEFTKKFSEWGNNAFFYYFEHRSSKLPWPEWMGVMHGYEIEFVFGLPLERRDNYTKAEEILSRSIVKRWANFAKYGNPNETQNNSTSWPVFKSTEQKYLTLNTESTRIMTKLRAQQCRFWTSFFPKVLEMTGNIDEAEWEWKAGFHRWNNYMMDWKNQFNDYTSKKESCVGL
Sequence (P22303 whole entry, looked up): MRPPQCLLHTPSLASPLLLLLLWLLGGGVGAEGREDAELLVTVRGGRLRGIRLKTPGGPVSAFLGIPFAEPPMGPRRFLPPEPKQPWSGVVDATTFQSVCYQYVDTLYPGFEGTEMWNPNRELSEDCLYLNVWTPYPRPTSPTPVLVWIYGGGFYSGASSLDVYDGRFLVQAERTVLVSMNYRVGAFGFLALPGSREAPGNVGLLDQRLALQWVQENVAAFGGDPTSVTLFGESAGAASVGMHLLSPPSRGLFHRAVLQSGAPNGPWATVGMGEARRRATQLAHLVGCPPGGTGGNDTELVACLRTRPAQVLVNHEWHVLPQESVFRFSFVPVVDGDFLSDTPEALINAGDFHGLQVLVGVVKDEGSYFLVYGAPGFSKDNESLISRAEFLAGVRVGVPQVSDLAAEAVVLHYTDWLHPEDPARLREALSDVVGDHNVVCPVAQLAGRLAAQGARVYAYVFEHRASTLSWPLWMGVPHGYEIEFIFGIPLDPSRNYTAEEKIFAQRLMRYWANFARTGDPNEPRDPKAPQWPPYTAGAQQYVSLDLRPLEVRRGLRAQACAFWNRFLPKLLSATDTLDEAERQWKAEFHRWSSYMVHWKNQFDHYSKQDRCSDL
assay_details: It is the ratio of IC50 for butyrl cholinesterase (BuChE ) to that of acetylcholinesterase (AChE)
Format: protein assay
In your answer, state the number alone without any accompanying words.

- CNC(=O)Oc1cccc(CN(C)CCCCCOc2ccc3c(=O)c4ccccc4oc3c2)c1: 101
- CCCCCCCNC(=O)Oc1cccc(CN(C)CCCOc2ccc3ccc(=O)oc3c2)c1: 5
- CNC(=O)Oc1cccc(CN(C)CCCOc2ccc3ccc(=O)oc3c2)c1: 0.6

Prompt: // query Ratio value for entry `CNC(=O)Oc1cccc(CN(C)CCCOc2ccc3c(=O)cc(-c4ccccc4)oc3c2)c1`
Response: 8.2

Prompt: Could you share which Ratio value was measured for `CCCCNC(=O)Oc1cccc(CN(C)CCCOc2ccc3c(=O)c4cccnc4oc3c2)c1` ?
Response: 2.7

Prompt: If you can, please state the reported Ratio value of `CN(CCCOc1ccc2c(=O)c3ccccc3oc2c1)Cc1cccc(OC(=O)Nc2ccccc2)c1` .
Response: 71.4
